- Tested on: D. immitis iPGM
- Type: biochemical, Dirofilaria immitis
Where a SMILES comes first, the peptide text is derived from it. Bridges are numbered along the chain shown (N, C = ends). [ ]: non-standard residue; d: D form.
quantity: D. immitis iPGM Max Inhibition
# answer = number (no unit)

Recorded D. immitis iPGM Max Inhibition, per entry:
{"compound": "CC[C@H](C)[C@@H]1NC(=O)[C@H](CCCNC(=N)N)NC(=O)[C@H](Cc2ccccc2)NC(=O)[C@@H]2CCCN2C(=O)[C@H](CC(N)=O)NC(=O)[C@H](C)NC(=O)[C@H](CC(C)C)NC(=O)[C@H]([C@@H](C)O)NC(=O)[C@H]([C@@H](C)CC)NC(=O)[C@H](Cc2ccc(O)cc2)NC(=O)CSC[C@@H](C(=O)NCC(N)=O)NC(=O)[C@H](Cc2c[nH]cn2)NC(=O)[C@H](CC(C)C)NC1=O [Ce-3] ({CH2CO}-YITLANPFRILHCG-NH2; thioether N-13)", "quantity": "D. immitis iPGM Max Inhibition", "readout.value": "−30.1"}
{"compound": "CC(C)C[C@H](NC(=O)[C@H](Cc1ccc(O)cc1)NC(=O)[C@@H]1CSCC(=O)N[C@H](Cc2ccc(O)cc2)C(=O)N[C@@H](CC(=O)O)C(=O)N[C@@H](Cc2ccc(O)cc2)C(=O)N2CCC[C@H]2C(=O)NCC(=O)N[C@@H](CC(=O)O)C(=O)N[C@@H](Cc2ccc(O)cc2)C(=O)N1)C(=O)N[C@@H](Cc1ccc(O)cc1)C(=O)NCC(=O)N[C@H](C(=O)N[C@@H](CS)C(N)=O)[C@@H](C)O [Ce-2a]", "quantity": "D. immitis iPGM Max Inhibition", "readout.value": "−100.1"}
{"compound": "CC(=O)N[C@H](Cc1ccc(O)cc1)C(=O)N[C@@H](CC(=O)O)C(=O)N[C@@H](Cc1ccc(O)cc1)C(=O)N1CCC[C@H]1C(=O)NCC(=O)N[C@@H](CC(=O)O)C(=O)N[C@@H](Cc1ccc(O)cc1)C(=O)N[C@@H](CO)C(=O)N[C@@H](Cc1ccc(O)cc1)C(=O)N[C@@H](CC(C)C)C(=O)N[C@@H](Cc1ccc(O)cc1)C(=O)NCC(=O)N[C@H](C(=O)N[C@@H](CS)C(=O)NCC(N)=O)[C@@H](C)O [Ce-L2] (Ac-[dY]DYPGDYSYLYGTCG-NH2)", "quantity": "D. immitis iPGM Max Inhibition", "readout.value": "−44"}
{"compound": "CC(C)C[C@@H]1NC(=O)[C@@H](Cc2ccc(O)cc2)NC(=O)CSC[C@@H](C(=O)N[C@@H](CC(N)=O)C(=O)N[C@H](C(=O)N[C@@H](CS)C(=O)NCC(N)=O)[C@@H](C)O)NC(=O)[C@H](CC(N)=O)NC(=O)[C@@H]2CCCN2C(=O)[C@H](Cc2c[nH]c3ccccc23)NC(=O)[C@H](CCC(=O)O)NC1=O [Bm-4] ({CH2CO}-[dY]LEWPNCNTCG-NH2; thioether N-7)", "quantity": "D. immitis iPGM Max Inhibition", "readout.value": "−88.1"}

// next item, D. immitis iPGM Max Inhibition requested
Query: D. immitis iPGM Max Inhibition; subject: CC(C)C[C@@H]1NC(=O)[C@@H](Cc2ccc(O)cc2)NC(=O)CSC[C@@H](C(=O)N[C@@H](CC(N)=O)C(=O)N[C@H](C(=O)N[C@@H](CS)C(N)=O)[C@@H](C)O)NC(=O)[C@H](CC(N)=O)NC(=O)[C@@H]2CCCN2C(=O)[C@H](Cc2c[nH]c3ccccc23)NC(=O)[C@H](CCC(=O)O)NC1=O [Bm-4a] ({CH2CO}-[dY]LEWPNCNTC-NH2; thioether N-7) −90.5

---

Reported values of Emax for individual entries
- measurement.target: O. volvulus iPGM (Onchocerca volvulus, UniProt I6LDA6)
- Sequence (I6LDA6 whole entry, looked up): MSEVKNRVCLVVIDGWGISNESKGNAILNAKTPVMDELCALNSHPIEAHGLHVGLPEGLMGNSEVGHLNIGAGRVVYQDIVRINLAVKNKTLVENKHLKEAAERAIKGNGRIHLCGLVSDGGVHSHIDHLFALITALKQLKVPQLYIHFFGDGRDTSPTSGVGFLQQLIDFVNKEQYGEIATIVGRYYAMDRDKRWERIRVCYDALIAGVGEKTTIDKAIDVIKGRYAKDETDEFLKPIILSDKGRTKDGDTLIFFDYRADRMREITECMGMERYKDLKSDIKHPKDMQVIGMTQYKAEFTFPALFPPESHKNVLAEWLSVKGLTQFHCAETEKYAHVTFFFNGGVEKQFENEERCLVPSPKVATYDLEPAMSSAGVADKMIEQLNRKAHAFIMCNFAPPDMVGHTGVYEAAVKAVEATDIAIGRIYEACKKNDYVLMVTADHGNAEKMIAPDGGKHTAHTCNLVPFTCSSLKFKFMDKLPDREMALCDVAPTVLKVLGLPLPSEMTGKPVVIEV
- procedure.details: biochemical
- assay.conditions: read-out: O. volvulus iPGM Max Inhibition
Where a SMILES comes first, the peptide text is derived from it. Bridges are numbered along the chain shown (N, C = ends). [ ]: non-standard residue; d: D form.
A complete answer gives the number and then names the unit.

Recorded Emax, per entry:
{"compound": "CC(C)C[C@H](NC(=O)[C@H](Cc1ccc(O)cc1)NC(=O)[C@@H]1CSCC(=O)N[C@H](Cc2ccc(O)cc2)C(=O)N[C@@H](CC(=O)O)C(=O)N[C@@H](Cc2ccc(O)cc2)C(=O)N2CCC[C@H]2C(=O)NCC(=O)N[C@@H](CC(=O)O)C(=O)N[C@@H](Cc2ccc(O)cc2)C(=O)N1)C(=O)N[C@@H](Cc1ccc(O)cc1)C(=O)NCC(=O)N[C@H](C(N)=O)[C@@H](C)O [Ce-2b]", "Emax": "80.1%"}
{"compound": "CC(C)C[C@H](NC(=O)[C@H](Cc1ccc(O)cc1)NC(=O)[C@@H]1CSCC(=O)N[C@H](Cc2ccc(O)cc2)C(=O)N[C@@H](CC(=O)O)C(=O)N[C@@H](Cc2ccc(O)cc2)C(=O)N2CCC[C@H]2C(=O)NCC(=O)N[C@@H](CC(=O)O)C(=O)N[C@@H](Cc2ccc(O)cc2)C(=O)N1)C(=O)N[C@@H](Cc1ccc(O)cc1)C(=O)NCC(=O)N[C@H](C(=O)N[C@@H](CO)C(=O)NCC(N)=O)[C@@H](C)O [Ce-2S]", "Emax": "97%"}
{"compound": "CC(C)C[C@@H]1NC(=O)[C@@H](Cc2ccc(O)cc2)NC(=O)CSC[C@@H](C(=O)N[C@@H](CC(N)=O)C(=O)N[C@H](C(=O)N[C@@H](CS)C(N)=O)[C@@H](C)O)NC(=O)[C@H](CC(N)=O)NC(=O)[C@@H]2CCCN2C(=O)[C@H](Cc2c[nH]c3ccccc23)NC(=O)[C@H](CCC(=O)O)NC1=O [Bm-4a] ({CH2CO}-[dY]LEWPNCNTC-NH2; thioether N-7)", "Emax": "87.8%"}

Query: Emax; subject: CC(C)[C@@H]1NC(=O)[C@H](C)NC(=O)[C@@H](Cc2ccc(O)cc2)NC(=O)CSC[C@@H](C(=O)N[C@@H](CCCNC(=N)N)C(=O)N[C@H](C(=O)N[C@@H](CS)C(=O)NCC(N)=O)[C@@H](C)O)NC(=O)[C@H](CC(N)=O)NC(=O)[C@@H]2CCCN2C(=O)[C@H](Cc2c[nH]c3ccccc23)NC1=O [Bm-7] ({CH2CO}-[dY]AVWPNCRTCG-NH2; thioether N-7) 78%

Query: Emax; subject: CC(C)C[C@@H]1NC(=O)[C@@H](Cc2ccc(O)cc2)NC(=O)CSC[C@@H](C(=O)N[C@@H](CO)C(=O)N[C@H](C(=O)N[C@@H](CS)C(=O)NCC(N)=O)[C@@H](C)O)NC(=O)[C@H](CC(N)=O)NC(=O)[C@@H]2CCCN2C(=O)[C@H](Cc2c[nH]c3ccccc23)NC(=O)[C@H](CC(=O)O)NC1=O [Bm-5] ({CH2CO}-[dY]LDWPNCSTCG-NH2; thioether N-7) 83.1%

Query: Emax; subject: CC(C)C[C@H](NC(=O)[C@H](Cc1ccc(O)cc1)NC(=O)[C@@H]1CSCC(=O)N[C@H](Cc2ccc(O)cc2)C(=O)N[C@@H](CC(=O)O)C(=O)N[C@@H](Cc2ccc(O)cc2)C(=O)N2CCC[C@H]2C(=O)NCC(=O)N[C@@H](CC(=O)O)C(=O)N[C@@H](Cc2c[nH]cn2)C(=O)N1)C(=O)N[C@@H](Cc1ccc(O)cc1)C(=O)NCC(=O)N[C@H](C(=O)N[C@@H](CS)C(=O)NCC(N)=O)[C@@H](C)O [Ce-1] 95.4%

---

Reported values of O. volvulus iPGM PIC50, M for individual entries
- measurement.target: UniProt:I6LDA6
- procedure.details: biochemical
Where a SMILES comes first, the peptide text is derived from it. Bridges are numbered along the chain shown (N, C = ends). [ ]: non-standard residue; d: D form.
Use M as the unit, but write only the number.

Recorded O. volvulus iPGM PIC50, M, per entry:
{"compound": "CC[C@H](C)[C@@H]1NC(=O)[C@H](CCCNC(=N)N)NC(=O)[C@H](Cc2ccccc2)NC(=O)[C@@H]2CCCN2C(=O)[C@H](CC(N)=O)NC(=O)[C@H](C)NC(=O)[C@H](CC(C)C)NC(=O)[C@H]([C@@H](C)O)NC(=O)[C@H]([C@@H](C)CC)NC(=O)[C@H](Cc2ccc(O)cc2)NC(=O)CSC[C@@H](C(=O)NCC(N)=O)NC(=O)[C@H](Cc2c[nH]cn2)NC(=O)[C@H](CC(C)C)NC1=O [Ce-3] ({CH2CO}-YITLANPFRILHCG-NH2; thioether N-13)", "unit.text": "M", "O. volvulus iPGM PIC50, M": 5.26}
{"compound": "CC[C@H](C)[C@@H]1NC(=O)[C@H](CCCNC(=N)N)NC(=O)[C@H](Cc2ccccc2)NC(=O)[C@@H]2CCCN2C(=O)[C@H](CC(N)=O)NC(=O)[C@H](C)NC(=O)[C@H](CC(C)C)NC(=O)[C@H]([C@@H](C)O)NC(=O)[C@H]([C@@H](C)O)NC(=O)[C@H](Cc2ccc(O)cc2)NC(=O)CSC[C@@H](C(=O)NCC(N)=O)NC(=O)[C@H](Cc2c[nH]cn2)NC(=O)[C@H](CC(C)C)NC1=O [Ce-4] ({CH2CO}-YTTLANPFRILHCG-NH2; thioether N-13)", "unit.text": "M", "O. volvulus iPGM PIC50, M": 5.37}

// next item, O. volvulus iPGM PIC50, M requested
Query: O. volvulus iPGM PIC50, M; subject: CC(C)C[C@@H]1NC(=O)[C@@H](Cc2ccc(O)cc2)NC(=O)CSC[C@@H](C(=O)N[C@@H](CC(N)=O)C(=O)N[C@H](C(=O)N[C@@H](CS)C(N)=O)[C@@H](C)O)NC(=O)[C@H](CC(N)=O)NC(=O)[C@@H]2CCCN2C(=O)[C@H](Cc2c[nH]c3ccccc23)NC(=O)[C@H](CCC(=O)O)NC1=O [Bm-4a] ({CH2CO}-[dY]LEWPNCNTC-NH2; thioether N-7) 6.14
